- ASSAYED_SYSTEM: Genome polyprotein (Hepatitis C virus)
- ASSAY_PROCEDURE: Binding constant against hepatitis C virus (HCV) protease
MEASURED_QUANTITY: Ki
Answer as a quantity: numeral, then unit.

>  <INPUT_SMILES>
CCSC[C@H](NC(=O)[C@H](CC1CCCCC1)NC(=O)[C@@H](NC(=O)[C@H](CC(C)C)NC(=O)[C@@H](CCC(=O)O)NC(=O)[C@H](CC(=O)O)NC(C)=O)[C@@H](C)CC)C(=O)O

>  <RESULT>
5000 nM

$$$$
>  <INPUT_SMILES>
CC[C@H](C)[C@H](NC(=O)[C@H](CC(C)C)NC(=O)[C@@H](CCC(=O)O)NC(=O)[C@H](CC(=O)O)NC(C)=O)C(=O)N[C@@H](CC1CCCCC1)C(=O)N[C@@H](CSC)C(=O)O

>  <RESULT>
500 nM

$$$$

Query: // Input: CCCC[C@H](NC(=O)[C@H](CC1CCCCC1)NC(=O)[C@@H](NC(=O)[C@H](CC(C)C)NC(=O)[C@@H](CCC(=O)O)NC(=O)[C@H](CC(=O)O)NC(C)=O)[C@@H](C)CC)C(=O)O . Output its Ki only.
Reply: 2000 nM

---

- ASSAYED_SYSTEM: Genome polyprotein (Hepatitis C virus)
- ASSAY_PROCEDURE: Binding constant against hepatitis C virus (HCV) protease
Quick list: Ki per entry.
Give just the number in nM; leave the unit off.

Below, 3 compounds whose answers are already recorded.
>  <INPUT_SMILES>
CC[C@H](NC(=O)[C@H](CC1CCCCC1)NC(=O)[C@@H](NC(=O)[C@H](CC(C)C)NC(=O)[C@@H](CCC(=O)O)NC(=O)[C@H](CC(=O)O)NC(C)=O)[C@@H](C)CC)C(=O)O

>  <ASSAYED_SYSTEM>
Genome polyprotein (Hepatitis C virus)

>  <UNIT_SPEC>
nM

>  <Ki>
600

$$$$
>  <INPUT_SMILES>
CCC[C@H](NC(=O)[C@H](CC1CCCCC1)NC(=O)[C@@H](NC(=O)[C@H](CC(C)C)NC(=O)[C@@H](CCC(=O)O)NC(=O)[C@H](CC(=O)O)NC(C)=O)[C@@H](C)CC)C(=O)O

>  <ASSAYED_SYSTEM>
Genome polyprotein (Hepatitis C virus)

>  <UNIT_SPEC>
nM

>  <Ki>
130

$$$$
>  <INPUT_SMILES>
CC[C@H](C)[C@H](NC(=O)[C@H](CC(C)C)NC(=O)[C@@H](CCC(=O)O)NC(=O)[C@H](CC(=O)O)NC(C)=O)C(=O)N[C@@H](CC1CCCCC1)C(=O)N[C@@H](CCS)C(=O)O

>  <ASSAYED_SYSTEM>
Genome polyprotein (Hepatitis C virus)

>  <UNIT_SPEC>
nM

>  <Ki>
80000

$$$$

Query: // Input: CC[C@H](C)[C@H](NC(=O)[C@H](CC(C)C)NC(=O)[C@@H](CCC(=O)O)NC(=O)[C@H](CC(=O)O)NC(C)=O)C(=O)N[C@@H](CC1CCCCC1)C(=O)N[C@@H](CS)C(=O)O . Output its Ki only.
Reply: 120
